Where these numbers come from: patent US9150568B2

# target: human Farnesoid X Receptor (FXR) ligand binding domain (GST-FXR LBD) (Homo sapiens, UniProt Q96RI1)
# Construct: purchased Invitrogen
# Sequence (Q96RI1 193-472 isoform Q96RI1-2): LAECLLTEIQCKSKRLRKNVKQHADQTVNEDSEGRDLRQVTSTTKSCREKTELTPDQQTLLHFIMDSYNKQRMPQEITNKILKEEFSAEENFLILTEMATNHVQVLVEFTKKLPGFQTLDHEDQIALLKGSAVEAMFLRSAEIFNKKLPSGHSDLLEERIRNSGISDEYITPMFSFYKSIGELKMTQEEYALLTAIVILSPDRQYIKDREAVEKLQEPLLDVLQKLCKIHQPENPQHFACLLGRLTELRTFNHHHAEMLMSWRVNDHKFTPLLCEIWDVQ
# method: Human GST-FXR LBD co-activator interaction assay (HTRF)
# Assay type: biochemical
# cond: GST-FXR LBD / biotin-SRC-1 peptide FRET; response relative to GW4064; read-out: FXR Co-activator interaction assay (EC50)
# Source text: Human GST-FXR LBD Co-activator interaction Assay. The FXR HTRF assay is a biochemical assay measuring the interaction between FXR and a coactivator protein (SRC1). […] The ligand-dependent interaction between GST-FXR LBD and a peptide derived from Steroid Receptor Coactivator-1 (SRC-1) was monitored by Fluorescence Resonance Energy Transfer (FRET). […] A negative control (without Streptavidin-XL665) was run with each assay and represented the background fluorescence. […]
pEC50: −log10 of the molar value.
Rule: pEC50 under 9 gives NO, otherwise YES.

Below are worked cases with known answers.
Cc1cc(C(=O)O)cc2sc(N3C4CC[C@H]3CC(OCc3c(-c5ccccc5OC(F)(F)F)noc3C3CC3)C4)nc12 (stereo partly shown)    YES
COc1cc(C(=O)O)cc2sc(N3[C@@H]4CC[C@H]3C[C@@H](OCc3c(-c5ccccc5F)noc3C3CC3)C4)nc12    YES
CC1(C)CCC(c2noc(C3CC3)c2CO[C@@H]2CC3CC[C@@H](C2)N3c2nc3ccc(C(=O)O)cc3s2)CC1    NO
COC(=O)c1cnc(N2C3CC[C@H]2C[C@H](OCc2c(-c4ccccc4OC(F)(F)F)noc2C2CC2)C3)c(Br)c1    NO
COC(=O)c1cnc(N2C3CC[C@H]2CC(OCc2c(-c4ccccc4OC(F)F)noc2C2CC2)C3)cc1C(F)(F)F (stereo partly shown)    NO

**Query** Decide: is the reported value of pEC50 for O=C(O)c1cc(C2CC2)nc(N2C3CC[C@H]2CC(OCc2c(-c4ccccc4OC(F)(F)F)noc2C2CC2)C3)n1 (stereo partly shown) equal to or greater than 9?
**Result** NO

**Query** What do you get for COC(=O)c1cnc(N2C3CC[C@H]2C[C@H](OCc2c(-c4ccccc4OC(F)(F)F)noc2C2CC2)C3)c(C)c1 ?
**Result** NO
